# Protocol summary: Volume of distribution at steady state in Balb/c mouse at 3 mg/kg, iv administered as single bolus dose measured upto 24 hrs by LC-MS/MS analysis
# Format: ADME, organism-based
# Condition details: in vivo, read-out: Vdss
Quantity: Vd (L/kg)
Output spec: scalar in L/kg, unitless text.

Please report the recorded Vd for C[C@H]1CN(C2CCN(c3nc(N)n[nH]3)CC2)[C@@H](Cc2ccc(Cl)cc2)CO1 .
1.01

----------
# Protocol summary: Clearance (0 to 24 hrs) in Beagle dog at 3 mg/kg, iv administered as single bolus dose by LC-MS/MS analysis
# Format: ADME, organism-based, Canis lupus familiaris
# Condition details: in vivo
Quantity: clearance (mL/min/kg)
Output spec: scalar in mL/min/kg, unitless text.

Please report the recorded clearance for C[C@H]1CN(C2CCN(c3nc(N)n[nH]3)CC2)[C@@H](Cc2ccc(Cl)cc2)CO1 .
1.67

----------
# Protocol summary: Tmax in Balb/c mouse at 10 mg/kg, po administered as single dose by LC-MS/MS analysis
# Type: ADME, organism-based
# Condition details: in vivo
Quantity: Tmax (h)
Output spec: scalar in h, unitless text.

Please report the recorded Tmax for C[C@H]1CN(C2CCN(c3nc(N)n[nH]3)CC2)[C@@H](Cc2ccc(Cl)cc2)CO1 .
2

----------
# Measurement target: Chitotriosidase-1 (Mus musculus, UniProt Q9D7Q1)
# Sequence (Q9D7Q1 whole entry): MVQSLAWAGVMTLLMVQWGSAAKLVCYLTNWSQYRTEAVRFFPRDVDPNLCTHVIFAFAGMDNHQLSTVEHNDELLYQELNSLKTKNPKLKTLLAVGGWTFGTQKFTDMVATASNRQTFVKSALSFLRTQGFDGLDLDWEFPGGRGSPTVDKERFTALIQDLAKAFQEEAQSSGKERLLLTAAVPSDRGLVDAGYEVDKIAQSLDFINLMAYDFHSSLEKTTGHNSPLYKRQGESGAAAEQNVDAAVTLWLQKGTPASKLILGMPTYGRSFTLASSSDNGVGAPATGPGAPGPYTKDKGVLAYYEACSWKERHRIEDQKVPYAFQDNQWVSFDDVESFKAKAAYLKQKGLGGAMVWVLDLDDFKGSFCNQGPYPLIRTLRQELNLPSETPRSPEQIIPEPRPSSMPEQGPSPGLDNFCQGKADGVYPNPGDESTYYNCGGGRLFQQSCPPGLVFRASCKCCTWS
# Protocol summary: biochemical
# Description: Inhibition of recombinant full-length C-terminal his-tagged mouse CHIT1 expressed in CHO-K1 cells assessed as reduction in chitinolytic activity using 4-methylumbelliferyl-beta-D-N,N',N"-triacetylchitotrioside as substrate after 60 mins by fluorometric assay
Quantity: IC50 (nM)
Output spec: scalar in nM, unitless text.

Worked cases, answers included:
INSERT INTO assay_data (smiles_repr, readout_unit, data_value) VALUES
  ('COC[C@H]1CN(C2CCN(c3nc(N)n[nH]3)CC2)[C@@H](Cc2ccc(Cl)cc2)CO1', 'nM', 30),
  ('Nc1nnc(N2CCC(N3CCS(=O)(=O)C[C@@H]3Cc3ccc(Cl)cc3)CC2)[nH]1', 'nM', 1700),
  ('CNC(=O)[C@H]1CN(C2CCN(c3nc(N)n[nH]3)CC2)[C@@H](Cc2ccc(Cl)cc2)CO1', 'nM', 49);

Note: attention shifts to another entry.
Please report the recorded IC50 for CC(C)[C@H]1CN(C2CCN(c3nc(N)n[nH]3)CC2)[C@@H](Cc2ccc(Cl)cc2)CO1 .
19

----------
# Protocol summary: Cmax in Beagle dog at 10 mg/kg, po administered as single dose by LC-MS/MS analysis
# Format: ADME, organism-based, Canis lupus familiaris
# Design: route oral, dose 10 mg/kg
# Condition details: in vivo
Quantity: Cmax (ng/mL)
Output spec: scalar in ng/mL, unitless text.

Please report the recorded Cmax for C[C@H]1CN(C2CCN(c3nc(N)n[nH]3)CC2)[C@@H](Cc2ccc(Cl)cc2)CO1 .
7640

----------
# Measurement target: UniProt Q9BZP6
# Sequence (Q9BZP6 whole entry): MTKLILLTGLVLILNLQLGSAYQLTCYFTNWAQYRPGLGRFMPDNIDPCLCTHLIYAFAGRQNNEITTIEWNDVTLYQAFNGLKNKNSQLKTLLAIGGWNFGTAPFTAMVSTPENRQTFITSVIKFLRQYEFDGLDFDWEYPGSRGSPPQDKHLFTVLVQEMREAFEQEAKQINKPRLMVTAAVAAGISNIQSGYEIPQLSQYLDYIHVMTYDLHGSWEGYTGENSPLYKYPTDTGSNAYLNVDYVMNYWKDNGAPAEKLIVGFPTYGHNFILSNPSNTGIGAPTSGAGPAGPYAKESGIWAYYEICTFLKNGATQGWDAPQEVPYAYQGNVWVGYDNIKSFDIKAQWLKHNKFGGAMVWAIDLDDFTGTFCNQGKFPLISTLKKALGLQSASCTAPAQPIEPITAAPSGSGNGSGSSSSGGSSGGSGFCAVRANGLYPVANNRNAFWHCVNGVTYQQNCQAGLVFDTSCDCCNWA
# Protocol summary: Inhibition of full-length C-terminal his-tagged human AMCase expressed in CHO-K1 cells assessed as reduction in chitinolytic activity using 4-methylumbelliferyl-beta-D-N,N-diacetylchitobioside hydrate as substrate after 60 mins by fluorometric assay
Quantity: IC50 (nM)
Output spec: scalar in nM, unitless text.

Please report the recorded IC50 for CC(C)CN1C[C@H](Cc2ccc(Cl)cc2)N(C2CCN(c3n[nH]c(N)n3)CC2)C[C@@H]1C .
84

----------
# Protocol summary: Clearance (0 to 24 hrs) in Sprague-Dawley rat at 2 mg/kg, iv administered as single bolus dose by LC-MS/MS analysis
# Assay type: ADME, organism-based
# Condition details: in vivo
Quantity: clearance (mL/min/kg)
Output spec: scalar in mL/min/kg, unitless text.

Please report the recorded clearance for C[C@H]1CN(C2CCN(c3nc(N)n[nH]3)CC2)[C@@H](Cc2ccc(Cl)cc2)CO1 .
5.67

----------
# Protocol summary: Tmax in Beagle dog at 10 mg/kg, po administered as single dose by LC-MS/MS analysis
# Format: ADME, organism-based, Canis lupus familiaris
# Condition details: in vivo
Quantity: Tmax (min)
Output spec: scalar in min, unitless text.

Please report the recorded Tmax for C[C@H]1CN(C2CCN(c3nc(N)n[nH]3)CC2)[C@@H](Cc2ccc(Cl)cc2)CO1 .
30

----------
# Measurement target: Voltage-gated inwardly rectifying potassium channel KCNH2 (Homo sapiens, UniProt Q12809)
# Sequence (Q12809 whole entry): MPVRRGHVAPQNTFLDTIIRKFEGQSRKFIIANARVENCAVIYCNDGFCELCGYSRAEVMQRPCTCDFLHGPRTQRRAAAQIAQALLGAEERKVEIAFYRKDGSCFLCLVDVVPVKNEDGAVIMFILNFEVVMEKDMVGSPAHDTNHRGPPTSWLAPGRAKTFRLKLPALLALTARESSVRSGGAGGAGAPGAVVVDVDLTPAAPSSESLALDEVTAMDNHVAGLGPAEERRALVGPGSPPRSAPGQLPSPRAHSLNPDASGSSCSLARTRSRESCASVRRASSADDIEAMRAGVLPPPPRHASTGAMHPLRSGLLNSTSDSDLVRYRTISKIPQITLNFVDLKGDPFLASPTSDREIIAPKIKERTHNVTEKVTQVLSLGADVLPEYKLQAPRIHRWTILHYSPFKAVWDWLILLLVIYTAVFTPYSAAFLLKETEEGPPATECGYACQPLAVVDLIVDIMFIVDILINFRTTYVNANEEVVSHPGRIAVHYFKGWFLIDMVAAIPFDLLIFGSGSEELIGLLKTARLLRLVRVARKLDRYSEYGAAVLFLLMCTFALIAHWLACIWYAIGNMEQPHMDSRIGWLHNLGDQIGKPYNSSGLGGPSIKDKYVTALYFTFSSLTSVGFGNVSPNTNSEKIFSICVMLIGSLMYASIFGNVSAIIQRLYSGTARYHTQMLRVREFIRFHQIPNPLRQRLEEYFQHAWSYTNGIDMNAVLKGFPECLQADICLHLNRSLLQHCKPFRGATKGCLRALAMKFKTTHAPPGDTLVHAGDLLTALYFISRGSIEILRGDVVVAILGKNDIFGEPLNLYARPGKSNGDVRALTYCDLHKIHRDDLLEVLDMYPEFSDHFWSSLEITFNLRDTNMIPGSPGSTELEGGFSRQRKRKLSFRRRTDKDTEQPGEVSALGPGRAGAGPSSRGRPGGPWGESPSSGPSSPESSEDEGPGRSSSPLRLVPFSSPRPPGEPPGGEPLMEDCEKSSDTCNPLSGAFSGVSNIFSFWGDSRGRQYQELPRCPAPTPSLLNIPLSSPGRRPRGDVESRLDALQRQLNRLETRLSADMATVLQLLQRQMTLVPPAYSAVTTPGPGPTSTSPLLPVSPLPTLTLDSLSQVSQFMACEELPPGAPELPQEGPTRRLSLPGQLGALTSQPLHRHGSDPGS
# Protocol summary: Inhibition of tracer red binding to human ERG expressed in HEK293 cell membranes measured after 2 to 6 hrs by fluorescence polarization assay
# IC50 per record follows
Output spec: scalar in µM, unitless text.

Worked cases, answers included:
INSERT INTO assay_data (smiles_repr, data_value) VALUES
  ('C[C@H]1CN(C2CCN(c3nc(N)n[nH]3)CC2)[C@@H](Cc2ccc(Cl)cc2)CO1', 23),
  ('CC(C)CN1C[C@H](Cc2ccc(Cl)cc2)N(C2CCN(c3n[nH]c(N)n3)CC2)C[C@@H]1C', 2.4),
  ('Nc1nnc(N2CCC(N3C[C@H](CO)OC[C@@H]3Cc3ccc(Cl)cc3)CC2)[nH]1', 72),
  ('Nc1n[nH]c(N2CCC(N3CC(=O)NC[C@@H]3Cc3ccc(Cl)cc3)CC2)n1', 80),
  ('CC(C)C[C@H]1CN(C2CCN(c3nnc(N)[nH]3)CC2)[C@@H](Cc2ccc(Cl)cc2)CO1', 8.5),
  ('Nc1nnc(N2CCC(N3Cc4ccccc4OC[C@@H]3Cc3ccc(Cl)cc3)CC2)[nH]1', 22),
  ('CC[C@H]1CN(C2CCN(c3nc(N)n[nH]3)CC2)[C@@H](Cc2ccc(Cl)cc2)CO1', 33),
  ('CC(C)[C@H]1CN(C2CCN(c3nc(N)n[nH]3)CC2)[C@@H](Cc2ccc(Cl)cc2)CO1', 34);

Note: attention shifts to another entry.
Please report the recorded IC50 for COC[C@H]1CN(C2CCN(c3nc(N)n[nH]3)CC2)[C@@H](Cc2ccc(Cl)cc2)CO1 .
100

----------
# Protocol summary: Initial plasma concentration in Balb/c mouse at 3 mg/kg, iv administered as single bolus dose by LC-MS/MS analysis
# Type: ADME, organism-based
Quantity: C0

Please report the recorded C0 for C[C@H]1CN(C2CCN(c3nc(N)n[nH]3)CC2)[C@@H](Cc2ccc(Cl)cc2)CO1 .
3970 ng/mL

----------
# Protocol summary: Elimination half-life in Sprague-Dawley rat at 6 mg/kg, po administered as single dose by LC-MS/MS analysis
# Format: ADME, organism-based
# Condition details: in vivo, read-out: beta t1/2 (converted)
Quantity: half-life (h)
Output spec: scalar in h, unitless text.

Please report the recorded half-life for C[C@H]1CN(C2CCN(c3nc(N)n[nH]3)CC2)[C@@H](Cc2ccc(Cl)cc2)CO1 .
4.47

----------
# Protocol summary: AUC (0 to 24 hrs) in Beagle dog at 3 mg/kg, iv administered as single bolus dose by LC-MS/MS analysis
# Assay type: ADME, organism-based, Canis lupus familiaris
# Parameters: time < 24 hr, route intravenous, dose 3 mg/kg
# Condition details: in vivo
Quantity: AUC(0-t) at 24 h (ng·h/mL)
Output spec: scalar in ng·h/mL, unitless text.

Please report the recorded AUC(0-t) at 24 h for C[C@H]1CN(C2CCN(c3nc(N)n[nH]3)CC2)[C@@H](Cc2ccc(Cl)cc2)CO1 .
31000

----------
# Protocol summary: Cmax in Beagle dog at 3 mg/kg, iv administered as single bolus dose by LC-MS/MS analysis
# Assay type: ADME, organism-based, Canis lupus familiaris
# Parameters: route intravenous, dose 3 mg/kg
# Condition details: in vivo
Quantity: Cmax (ng/mL)
Output spec: scalar in ng/mL, unitless text.

Please report the recorded Cmax for C[C@H]1CN(C2CCN(c3nc(N)n[nH]3)CC2)[C@@H](Cc2ccc(Cl)cc2)CO1 .
2470

----------
# Protocol summary: AUC (0 to 24 hrs) in Sprague-Dawley rat at 6 mg/kg, po administered as single dose by LC-MS/MS analysis
# Type: ADME, organism-based
# Parameters: time < 24 hr, route oral, dose 6 mg/kg
# Condition details: in vivo
Quantity: AUC(0-t) at 24 h (ng·h/mL)
Output spec: scalar in ng·h/mL, unitless text.

Please report the recorded AUC(0-t) at 24 h for C[C@H]1CN(C2CCN(c3nc(N)n[nH]3)CC2)[C@@H](Cc2ccc(Cl)cc2)CO1 .
20300

----------
# Protocol summary: Cmax in Sprague-Dawley rat at 6 mg/kg, po administered as single dose by LC-MS/MS analysis
# Type: ADME, organism-based
# Set-up: route oral, dose 6 mg/kg
# Condition details: in vivo
Quantity: Cmax (ng/mL)
Output spec: scalar in ng/mL, unitless text.

Please report the recorded Cmax for C[C@H]1CN(C2CCN(c3nc(N)n[nH]3)CC2)[C@@H](Cc2ccc(Cl)cc2)CO1 .
2210

----------
# Protocol summary: Elimination half-life in Balb/c mouse at 10 mg/kg, po administered as single dose by LC-MS/MS analysis
# Format: ADME, organism-based
# Condition details: in vivo, read-out: beta t1/2 (converted)
Quantity: half-life (h)
Output spec: scalar in h, unitless text.

Please report the recorded half-life for C[C@H]1CN(C2CCN(c3nc(N)n[nH]3)CC2)[C@@H](Cc2ccc(Cl)cc2)CO1 .
1.88
